assay notes: Selectivity index, ratio of IC50 for HEK293 cells to IC50 for human MDA-MB-231 cells
Assay type: toxicity
particulars: HEK293 cells versus MDA-MB-231 cells, read-out: Ratio IC50
recorded endpoint: selectivity ratio
Numbers only.

Respond only with selectivity ratio recorded for COc1ccc(/C=C/C(=O)c2ccc(OCC(=O)N3CCCC3)cc2)cc1 4.14

----------
System: HCT-116
assay notes: Antiproliferative activity against human HCT-116 cells assessed as inhibition of cell growth measured after 48 hrs by SRB method
Type: functional, cell-based
particulars: HCT-116, 48 h
recorded endpoint: pIC50
Give bare numbers, as −log10 of the molar value.

Check out these entries, answers already filled in.
                               smiles_input  target_or_system  recorded_endpoint  assay_value
0  COc1ccc(/C=C/C(=O)c2ccc(OCC(=O)N3CCCC3)cc2)cc1           HCT-116              pIC50         4.74
1  COc1ccc(/C=C/C(=O)c2ccc(OCC(=O)N3CCCCC3)cc2)cc1           HCT-116              pIC50         4.76
2  COc1ccc(/C=C/C(=O)c2ccc(OCC(=O)N3CCSCC3)cc2)cc1           HCT-116              pIC50         4.82
3  COc1ccc(/C=C/C(=O)c2ccc(OCC(=O)NC3CCCCC3)cc2)cc1           HCT-116              pIC50         4.72

Now look at this one.
Quick one: give measured pIC50 for COc1ccc(/C=C/C(=O)c2ccc(OCC(=O)NCc3cc(OC)c(OC)c(OC)c3)cc2)cc1 4.98
